Value source: patent US20020161528A1

- recorded conditions: Table 1; capacity factor extrapolated to 0% methanol; average of three to five determinations; pH 7.4
test readout: log k′w
Give only the figure.

Some compounds with known log k′w results, for comparison:
(Q) Give the reported value of log k′w for this record: Cc1ncc([N+](=O)[O-])n1CCO
(A) −0.08

(Q) Give the reported value of log k′w for this record: Cc1cccc(N(C)C(=S)Oc2ccc3ccccc3c2)c1 [Tolnaftate]
(A) 4.53

(Q) Give the reported value of log k′w for this record: CSc1ncnc2c1ncn2[C@@H]1O[C@H](CO)[C@@H](O)[C@H]1O
(A) 0.25

(Q) Give the reported value of log k′w for this record: NS(=O)(=O)c1cc2c(cc1Cl)NC(C(Cl)Cl)NS2(=O)=O (stereo not drawn) [Trichlormethiazide]
(A) 0.26

(Q) Give the reported value of log k′w for this record: NS(=O)(=O)c1cc2c(cc1Cl)NC(C1CC3C=CC1C3)NS2(=O)=O (stereo not drawn) [Cyclothiazide]
(A) 2.15

More entries:
(Q) Give the reported value of log k′w for this record: COc1ccc2c(c1)N(C[C@H](C)CN(C)C)c1ccccc1S2
(A) 2.10

(Q) Give the reported value of log k′w for this record: CS(=O)(=O)c1ccc([C@@H](O)[C@@H](CO)NC(=O)C(Cl)Cl)cc1
(A) −0.05

(Q) Give the reported value of log k′w for this record: CN/C(=N/CCSCc1nc[nH]c1C)NC#N
(A) 0.17

(Q) Give the reported value of log k′w for this record: CC/C(=C(/CC)c1ccc(O)cc1)c1ccc(O)cc1
(A) 4.12
